Value source: patent US7910344B2

Reported Agaricus tyr Relative oxygen consumption (%) by item:
Test system: Agaricus bisporus crude tyrosinase (Sigma)
assay name: Substrate specificity by oxygen consumption measurements, commercial Agaricus tyrosinase
Format: biochemical
conditions: mono-phenols, in relation to L-tyrosine; 2.5 mM substrate, pH 7.0, 50 μg mushroom tyrosinase
Value expressed in %; do not type the unit.

The cases that follow already have their Agaricus tyr Relative oxygen consumption (%) on record.
> print(dat)
                                  compound  test.value
1                  Cc1ccc(O)cc1 [p-Cresol]         104
2                NCCc1ccc(O)cc1 [Tyramine]          85
3               OCCc1ccc(O)cc1 [p-Tyrosol]         157
4                       Oc1ccccc1 [Phenol]          85
5  COc1cc(/C=C/C(=O)O)ccc1O [Ferulic acid]           0

I have this compound here, Nc1ccc(O)cc1 [4-Aminophenol] , and I need its recorded Agaricus tyr Relative oxygen consumption (%). 9

I have this compound here, O=C(O)C=Cc1ccccc1O [o-Coumaric acid] , and I need its recorded Agaricus tyr Relative oxygen consumption (%). 0
